# TESTED_ON: p70S6K(h) (Homo sapiens, UniProt P23443)
# Construct: purchased Millipore
# Sequence (P23443 whole entry): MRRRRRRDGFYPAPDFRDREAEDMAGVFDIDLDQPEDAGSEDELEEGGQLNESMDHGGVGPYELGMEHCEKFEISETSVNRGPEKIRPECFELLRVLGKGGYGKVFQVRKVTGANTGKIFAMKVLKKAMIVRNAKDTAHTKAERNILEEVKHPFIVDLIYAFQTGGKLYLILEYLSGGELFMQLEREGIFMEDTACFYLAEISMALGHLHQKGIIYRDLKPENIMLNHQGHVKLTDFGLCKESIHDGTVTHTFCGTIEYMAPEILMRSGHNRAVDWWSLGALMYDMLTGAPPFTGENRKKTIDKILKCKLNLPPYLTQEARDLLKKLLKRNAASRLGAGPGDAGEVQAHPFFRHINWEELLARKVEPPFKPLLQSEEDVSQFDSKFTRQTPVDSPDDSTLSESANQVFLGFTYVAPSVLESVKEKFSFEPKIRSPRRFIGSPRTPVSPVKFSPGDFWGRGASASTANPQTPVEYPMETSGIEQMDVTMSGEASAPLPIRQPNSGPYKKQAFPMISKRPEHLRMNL
# ASSAY_EXPLANATION: Kinase Profiling Assay
# Assay type: biochemical
# CONDITION: peptide 100 μM
No end group written: not given here.
MEASURED_METRIC: % activity

1. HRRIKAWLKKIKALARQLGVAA (Mammal) [MMI-0500] ... 3%
2. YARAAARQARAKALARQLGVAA [MMI-0100] ... 89%
3. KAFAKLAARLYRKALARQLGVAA [MMI-0400] ... 33%
4. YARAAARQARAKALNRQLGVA (Mammal) [MMI-0200] ... 84%
5. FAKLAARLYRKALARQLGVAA [MMI-0300] ... 35%
